# System: SF-268 CNS
# assay_text: NCI tumour cell line growth inhibition, 48 h
Listed here: items and their measured TGI.

Here's what some known entries look like.
>>> value_measured("O=C1C(=O)/C(=C/c2ccccc2)CCCCCC/C1=C/c1ccccc1")
"8.28 µM"
>>> value_measured("C#CC1(O)C(COP(=O)(O)OC(COCCCCCCCCCCCCCCCCCC)COP(=O)(O)OCC2OC(n3cc(C)c(=O)[nH]c3=O)CC2N=[N+]=[N-])OC(n2ccc(N)nc2=O)C1O (stereo not given)")
"21.7 µM"
>>> value_measured("Cn1cc(-c2csc(-c3c[nH]c4ccc(F)cc34)n2)c2cccnc21")
"> 93.6 µM"
>>> value_measured("CCc1cccc(C(C)CC)c1NC(=O)CC1C(=O)Nc2ccccc2S1(=O)=O (stereo not given)")
"> 100 µM"
>>> value_measured("Clc1ccc(Cc2nc3cc(Cl)c(Cl)cc3n2CC2CCCN3CCCCC23)cc1Cl (stereo not given)")
"15.8 µM"

Task: Report the value of TGI obtained on SF-268 CNS for COc1cc(/C=C2\CCC(C)(CN(C)C)C2=O)cc(OC)c1OC (stereo not given) .
Output: > 100 µM

Task: Report the value of TGI obtained on SF-268 CNS for [O-][n+]1c(-c2ccccc2)oc2ccccc21 .
Output: > 100 µM

Task: Report the value of TGI obtained on SF-268 CNS for Nc1nc(SCc2ccccc2)nc2[nH]ncc12 .
Output: 69.2 µM

Task: Report the value of TGI obtained on SF-268 CNS for O=c1cn[nH]c2nc3ccccc3n12 .
Output: > 100 µM

----------
# Test system: MCF7 breast
# assay_text: NCI tumour cell line growth inhibition, 48 h
reported_metric: TGI (µM)
Note: unit µM is implicit; provide only the numeric part.

Here's what some known entries look like.
>>> value_measured("O=C1c2c(O)ccc(O)c2C(=O)c2c(NCCNC(=O)C(O)C(O)C(O)C(O)CO)ccc(NCCNC(=O)C(O)C(O)C(O)C(O)CO)c21 (stereo not drawn)")
0.243
>>> value_measured("NCCCNc1nc2ccccc2c2c(=O)c3cccc(F)c3sc12")
2.4
>>> value_measured("OCN(CO)c1ccc2c(c1)Cc1cc(F)ccc1-2")
42.7
>>> value_measured("O=C(c1ccc(Oc2ccccc2)cc1Cl)c1c[nH]c2ncnc(N[C@@H]3CC[C@@H](CO)OC3)c12")
13
>>> value_measured("CN(c1ccc(C(=O)O)cc1)c1cc(O/N=[N+](\\[O-])N(C)C)c([N+](=O)[O-])cc1[N+](=O)[O-]")
54.8

Task: Identify the reported TGI for the following entry. COc1ccc(/C=C/C(=O)c2c(O)c(C)c(O)c3c2OC2=CC(O)=C(C(C)=O)C(=O)[C@]23C)cc1
Output: 3.8

----------
# Tested on: HCC-2998 colon
# assay_text: NCI tumour cell line growth inhibition, 48 h
reported_metric: TGI

>>> value_measured("COC(=O)C1=C(OC(=O)/C(=C/c2ccccc2)c2ccc([N+](=O)[O-])cc2)C(C(=O)OC)[C@@]2(O)[C@@H](C(=O)OC)[C@H](C)C[C@@H]1[C@@H]2C(=O)OC (some centres not stated)")
"> 100 µM"
>>> value_measured("CC(CN(C)C)C(C#N)(c1ccccc1)c1ccccc1 (configuration not stated)")
"> 100 µM"

Task: Identify the reported TGI for the following entry. COC(=O)CCCC(=O)C1=Nc2ccccc2CN(c2ccc(Cl)cc2)N1
Output: > 100 µM

Task: Identify the reported TGI for the following entry. Cn1c(C2CCCc3c2c2ccccc2n3C)cc2ccccc21 (configuration not stated)
Output: > 318 µM

These data points were gathered from PubChem BioAssay (NCI).
